Target: UniProt P49840
Sequence (P49840 whole entry): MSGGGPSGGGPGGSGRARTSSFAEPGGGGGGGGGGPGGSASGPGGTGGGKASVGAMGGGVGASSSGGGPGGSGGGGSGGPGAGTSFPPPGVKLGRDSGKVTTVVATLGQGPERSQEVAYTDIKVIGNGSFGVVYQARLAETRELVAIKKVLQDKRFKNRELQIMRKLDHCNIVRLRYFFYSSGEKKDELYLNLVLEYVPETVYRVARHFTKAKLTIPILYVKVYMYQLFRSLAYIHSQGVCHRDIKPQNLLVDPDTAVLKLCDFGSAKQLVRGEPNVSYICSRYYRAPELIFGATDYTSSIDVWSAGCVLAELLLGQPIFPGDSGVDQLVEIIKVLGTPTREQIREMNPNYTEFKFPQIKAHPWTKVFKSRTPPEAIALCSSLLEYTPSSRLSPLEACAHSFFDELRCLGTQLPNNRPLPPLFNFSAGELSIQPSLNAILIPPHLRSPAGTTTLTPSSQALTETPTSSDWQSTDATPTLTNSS
Assay: GSK 3α enzyme inhibition (FRET, Z-LYTE), Method 2
Assay type: biochemical
Conditions: Method 2, different laboratory (Table 4a2); read-out: IC50 Values for Enzyme Inhibition GSK3α
Experimental: The enzyme inhibitory activities of compounds disclosed herein are determined by FRET using synthetic peptides labelled with both donor and acceptor fluorophores (Z-LYTE, Invitrogen Ltd., Paisley, UK). The inhibitory activities of compounds of the invention against the GSK 3α enzyme isoform (Invitrogen), are evaluated by determining the level of activation/phosphorylation of the target peptide. […]
assay-metric: IC50 (µM)

1) CCc1cc(NC(=O)Nc2ccc(Oc3ccnc(Nc4cc(OC)cc(C(=O)NCCN5CCOCC5)c4)n3)c3ccccc23)n(-c2ccc(C)cc2)n1    13.5
2) COc1cc(C(=O)NCCN2CCOCC2)ccc1Nc1nccc(Oc2ccc(NC(=O)Nc3cc(C(C)C)nn3-c3ccc(C)cc3)c3ccccc23)n1    13.2
3) C#Cc1cc(Nc2nccc(Oc3ccc(NC(=O)Nc4cc(C(F)(F)C(F)(F)F)nn4-c4ccc(C)cc4)c4ccccc34)n2)cc(C(=O)NCCN2CCOCC2)c1    12.1
4) C#Cc1cc(Nc2nccc(Oc3ccc(NC(=O)Nc4cc(C(C)(C)C)nn4-c4ccc(N(C)C)cc4)c4ccccc34)n2)cc(C(=O)NCCN2CCOCC2)c1    12.6
5) COc1cc(Nc2nccc(Oc3ccc(NC(=O)Nc4cc(C(C)C)nn4-c4ccc(C)cc4)c4ccccc34)n2)cc(C(=O)NCCN2CCOCC2)c1    13.2
6) C#Cc1cc(Nc2nccc(Oc3ccc(NC(=O)Nc4cc(C(C)(C)C)nn4-c4ccc(OC)cc4)c4ccccc34)n2)cc(C(=O)NCCOC)c1    13.8
7) COc1cc(Nc2nccc(Oc3ccc(NC(=O)Nc4cc(C5CC5)nn4-c4ccc(C)cc4)c4ccccc34)n2)cc(C(=O)NCCN2CCOCC2)c1    13.3
8) C#Cc1cc(Nc2nccc(Oc3ccc(NC(=O)Nc4cc(C(C)C)nn4-c4ccc(C)cc4)c(Cl)c3Cl)n2)cc(C(N)=O)c1    15.3

---

test: Pharmacokinetics and total colon tissue distribution in mice; type: in vivo, male C57BL/6 mice; details: male, C57BL/6, total colon tissue, po; Mouse, 5 mg/kg p.o., Total colon
assay-metric: Tmax (h)
Give your result in h as a bare value.

Exercise: // lookup Tmax for `C#Cc1cc(Nc2nccc(Oc3ccc(NC(=O)Nc4cc(C(C)(C)C)nn4-c4ccc(OC)cc4)c4ccccc34)n2)cc(C(=O)NCCN2CCOCC2)c1`
Key: 4

---

System: β-catenin in d-U937 cells
Experiment: (m) Accumulation of β catenin in d-U937 cells
Type: cell-based, human
Conditions: 5 μg/mL test compound
Procedure: U937 cells, a human monocytic cell line, are differentiated into macrophage-type cells by incubation with PMA; (100 ng/mL) for between 48 to 72 hr. The cells are then incubated with either final concentrations of test compound or vehicle for 18 hr. The induction of β-catenin by the test compounds is stopped by replacing the media with 4% formaldehyde solution. […] The measured OD450-655 readings are corrected for cell number by dividing the OD450-655 by the OD595 readings. […]
Below, each of the compounds is paired with its reported % β-catenin induction value.
Entry rule: numbers only, all in %.

1. C#Cc1cc(Nc2nccc(Oc3ccc(NC(=O)Nc4cc(C(C)(C)C)nn4-c4ccc(OC)nc4)c4ccccc34)n2)cc(C(=O)NCCN2CCOCC2)c1 [Example 73]    −7
2. COCCNC(=O)c1cc(Nc2nccc(Oc3ccc(NC(=O)Nc4cc(C(C)C)nn4-c4ccc(OC)cc4)c4ccccc34)n2)cc(OC)c1 [Example 11]    1
3. C#Cc1cc(Nc2nccc(Oc3ccc(NC(=O)Nc4cc(C(C)(C)C#N)nn4-c4ccc(C)cc4)c4ccccc34)n2)cc(C(=O)NCCN2CCOCC2)c1 [Example 78]    0

Exercise: Report % β-catenin induction for C#Cc1cc(Nc2nccc(Oc3ccc(NC(=O)Nc4cc(C(C)(C)C)nn4-c4ccc(C)cc4)c4ccccc34)n2)cc(C(=O)N[C@H](C)CN2CCOCC2)c1 [Example 83] tested on β-catenin in d-U937 cells.
Key: −6

Exercise: Another compound: C#Cc1cc(Nc2nccc(Oc3ccc(NC(=O)Nc4cc(C(C)(C)C)nn4-c4ccc(OC)cc4)c4ccccc34)n2)cc(C(=O)N[C@@H](C)COC)c1 [Example 85]
Key: 3

Exercise: Next record, please: C#Cc1cc(Nc2nccc(Oc3ccc(NC(=O)Nc4cc(C(C)(C)C(F)(F)F)nn4-c4ccc(C)cc4)c4ccccc34)n2)cc(C(=O)NCCN2CCOCC2)c1 [Example 76]
Key: −1

Exercise: How about this compound: C#Cc1cc(Nc2nccc(Oc3ccc(NC(=O)Nc4cc(C(C)(C)C)nn4-c4ccc(C)cc4)c4ccccc34)n2)cc(C(=O)NCCN2CCOCC2)c1 [Example 75]
Key: −10

Exercise: Item: COc1cc(Nc2cc(Oc3ccc(NC(=O)Nc4cc(C(C)(C)C)nn4-c4ccc(C)cc4)c4ccccc34)ccn2)cc(C(=O)NCCN2CCOCC2)c1 [Example 1]
Key: −6

Exercise: Follow-up entry: C#Cc1cc(Nc2nccc(Oc3ccc(NC(=O)Nc4cc(C(C)(C)C)nn4-c4ccc(OC)cc4)c4ccccc34)n2)cc(C(=O)NCCOC)c1 [Example 84]
Key: 3

Exercise: Now try C#Cc1cc(Nc2nccc(Oc3ccc(NC(=O)Nc4cc(C(C)(C)C)nn4-c4ccc(C)cc4)c4ccccc34)n2)cc(C(=O)NC(C)(C)CN2CCOCC2)c1 [Example 82] .
Key: 9

---

Experiment: Pharmacokinetics, plasma and total colon tissue distribution in rats
Format: in vivo, male Wistar rats
Conditions: male, Wistar, total colon tissue, po; Rat, 5 mg/kg p.o., Total colon
Method: A study was conducted by Sai Life Sciences (Hinjewadi, Pune, India) to investigate the pharmacokinetics, as well as plasma and total colon tissue distribution of the compound of Example 77 in male Wistar rats following a single intravenous or oral administration. 30 male Wistar rats were divided into two groups: Group I (p.o.: 5 mg/kg; 27 rats) and Group II (i.v.: 0.25 mg/kg; 3 rats). […]
assay-metric: AUC(0-inf) (ng·h/mL)
Give a bare numeral; the unit ng·h/mL is implied.

Exercise: Which value of AUC(0-inf) has been reported for C#Cc1cc(Nc2nccc(Oc3ccc(NC(=O)Nc4cc(C(C)(C)C)nn4-c4ccc(OC)cc4)c4ccccc34)n2)cc(C(=O)NCCN2CCOCC2)c1 [Example 77] in the records?
Key: 20700

---

experiment: Pharmacokinetics and total colon tissue distribution in mice; format: in vivo, male C57BL/6 mice; conditions: male, C57BL/6, po; Mouse, 5 mg/kg p.o., Plasma
assay-metric: Cmax (ng/mL)
A number alone suffices; assume ng/mL.

Exercise: I'd like to know its Cmax. The molecule in question is `C#Cc1cc(Nc2nccc(Oc3ccc(NC(=O)Nc4cc(C(C)(C)C)nn4-c4ccc(OC)cc4)c4ccccc34)n2)cc(C(=O)NCCN2CCOCC2)c1`
Key: 3.5

---

biological target: p38 MAPKα isoform (MAPK14) (Homo sapiens (Human)); assay: p38 MAPKα enzyme inhibition (FRET, Z-LYTE), Method 1; format: biochemical; details: Method 1 (Table 4a1)
assay-metric: IC50 (nM)

[1] COc1cc(Nc2cc(Oc3ccc(NC(=O)Nc4cc(C(C)C)nn4-c4ccc(C)cc4)c4ccccc34)ncn2)cc(C(=O)NCCN2CCOCC2)c1 [Example 71]
[2] COc1ccc(Nc2nccc(Oc3ccc(NC(=O)Nc4cc(C(C)C)nn4-c4ccc(C)cc4)c4ccccc34)n2)cc1C(=O)NCCN1CCOCC1 [Example 70]
Exercise: // pick larger IC50 from pair: 1 vs 2 In your reply, give the label of the chosen option.
Key: 2

---

assay: Plasma pharmacokinetics in beagle dogs; format: in vivo, male beagle dogs; conditions: male, beagle, plasma; Dog, intravenous 0.05 mg/kg
assay-metric: Vd (L/kg)
Use L/kg as the unit, but write only the number.

Exercise: Suppose we examine the compound `C#Cc1cc(Nc2nccc(Oc3ccc(NC(=O)Nc4cc(C(C)(C)C)nn4-c4ccc(OC)cc4)c4ccccc34)n2)cc(C(=O)NCCN2CCOCC2)c1` ; what Vd value has been reported?
Key: 1.8

---

biological target: p38 MAPKα isoform (MAPK14) (Homo sapiens (Human), UniProt Q16539); assay: p38 MAPKα enzyme inhibition (FRET, Z-LYTE), Method 2; type: biochemical; details: Method 2, different laboratory (Table 4a2)
Sequence (Q16539 whole entry, canonical isoform): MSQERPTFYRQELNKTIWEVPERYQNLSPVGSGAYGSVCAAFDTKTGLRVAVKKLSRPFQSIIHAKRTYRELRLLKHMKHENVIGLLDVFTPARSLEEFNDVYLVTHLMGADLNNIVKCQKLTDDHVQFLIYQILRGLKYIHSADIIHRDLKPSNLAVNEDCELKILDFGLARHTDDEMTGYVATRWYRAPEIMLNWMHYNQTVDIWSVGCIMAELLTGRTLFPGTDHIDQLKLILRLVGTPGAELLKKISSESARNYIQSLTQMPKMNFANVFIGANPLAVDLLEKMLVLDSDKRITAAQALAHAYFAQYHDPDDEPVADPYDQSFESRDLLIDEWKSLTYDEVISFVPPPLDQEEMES
assay-metric: IC50 (nM)

[I] C#Cc1cc(Nc2nccc(Oc3ccc(NC(=O)Nc4cc(C(C)(C)C)nn4-c4ccc(N(C)C)cc4)c4ccccc34)n2)cc(C(=O)NCCN2CCOCC2)c1
[II] COCCNC(=O)c1cc(Nc2nccc(Oc3ccc(NC(=O)Nc4cc(C(C)C)nn4-c4ccc(OC)cc4)c4ccccc34)n2)cc(OC)c1
[III] C#Cc1cc(Nc2nccc(Oc3ccc(NC(=O)Nc4cc(C(C)C)nn4-c4ccc(C)cc4)c4ccccc34)n2)cc(C(=O)NCCN2CCOCC2)c1
Exercise: Could you please sort these 3 entries by IC50 from high to low? Please respond by ranking the labels in the order requested.
Key: I, II, III
